- Tested on: HCI-002 (organoid from a triple-negative breast cancer xenograft)
- assay_overview: CTG-3D luminescence at 96 h relative to day-0 seeding control (ratio to day 0); higher = more growth / less cytotoxicity; PDxO 3D drug screen, 96 h, CTG-3D normalised to day-0 seeding control.
- condition_notes: 0.005 µM; days in culture: 91
experimental_readout: CTG-3D luminescence at 96 h

smiles_string	assay_target	result
CC[C@H](NC(=O)[C@H](C)NC)C(=O)N1C[C@@H](O)C[C@H]1Cc1c(-c2[nH]c3cc(F)ccc3c2C[C@@H]2C[C@H](O)CN2C(=O)[C@H](CC)NC(=O)[C@H](C)NC)[nH]c2cc(F)ccc12	HCI-002	3.4
Cc1cc(Nc2ncc(Cl)c(Nc3ccccc3S(=O)(=O)C(C)C)n2)c(OC(C)C)cc1C1CCNCC1	HCI-002	3.52
COc1cccc2c1C(=O)c1c(O)c3c(c(O)c1C2=O)C[C@@](O)(C(=O)CO)C[C@@H]3O[C@H]1C[C@H](N)[C@H](O)[C@H](C)O1	HCI-002	3.24
NC1(C(=O)N[C@@H](CCO)c2ccc(Cl)cc2)CCN(c2nc[nH]c3nccc2-3)CC1	HCI-002	3.7
Cc1nc(-c2cn3c(n2)-c2ccc(-c4cnn(C(C)(C)C(N)=O)c4)cc2OCC3)n(C(C)C)n1	HCI-002	2.4
CNC(=O)c1cccc(-c2ccc3c(N4CCOC[C@@H]4C)nc(N4CCOC[C@@H]4C)nc3n2)c1	HCI-002	3.38
